Each record here notes measured pIC50.
Target Desc: Pim-1 (Homo sapiens (Human))
Sequence (P11309 whole entry): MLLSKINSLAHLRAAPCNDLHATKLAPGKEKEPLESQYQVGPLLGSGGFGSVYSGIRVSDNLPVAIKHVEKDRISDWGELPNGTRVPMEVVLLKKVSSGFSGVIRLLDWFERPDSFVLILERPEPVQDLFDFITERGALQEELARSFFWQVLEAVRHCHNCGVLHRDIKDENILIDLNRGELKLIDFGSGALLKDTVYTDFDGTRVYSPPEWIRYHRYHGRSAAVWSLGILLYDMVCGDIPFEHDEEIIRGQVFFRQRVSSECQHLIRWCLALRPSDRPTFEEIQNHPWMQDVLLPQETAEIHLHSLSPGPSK
Experiment: Pim-Mn enzyme assay (HTRF, 384-well), Pim-1
Format: biochemical
Experimental Setup: Pim-1 enzyme 5 pM, ATP 1.5 μM, BAD (S112) 0.5 μM, HTRF, 22-point curve; read-out: Pim-1-Mn IC50 IP
pIC50: −log10 of the molar value.
Measured Endpoint: pIC50

>>> print(df.to_string())
                                   compound  measured_endpoint  measured_result
0  Cc1nc2cccc(-c3cc4c([nH]3)C(CCO)NC4=O)c2nc1NC(C)(C)C (centres unmarked)              pIC50             9.29
1  Cc1nc2cccc(-c3cc4c([nH]3)CCNC4=O)c2nc1-c1ccncc1Cl              pIC50             7.18
2  Cc1nc2cccc(-c3cc4c([nH]3)CCNC4=O)c2nc1NC1(CO)CC1              pIC50             9.00
3  Cc1nc2ccc(F)c(-c3cc4c([nH]3)C3(CC3)NC4=O)c2nc1NC(C)C              pIC50             9.14
4  Cc1nc2cccc(-c3cc4c(=O)[nH]cnc4[nH]3)c2nc1NC1CCC1              pIC50             8.80
5  CC(=O)Nc1nc2c(-c3cc4c([nH]3)CCNC4=O)cccc2nc1C              pIC50             7.55
6  CC1(Nc2cnc3cccc(-c4cc5c([nH]4)CCNC5=O)c3n2)CC1              pIC50             9.70
7  Cc1nc2cccc(-c3cc4c(n3C(=O)OC(C)(C)C)CCNC4=O)c2nc1NC(C)(C)C              pIC50             7.40

====

Target Desc: Pim-2 (Homo sapiens (Human), UniProt Q9P1W9)
Sequence (Q9P1W9 whole entry): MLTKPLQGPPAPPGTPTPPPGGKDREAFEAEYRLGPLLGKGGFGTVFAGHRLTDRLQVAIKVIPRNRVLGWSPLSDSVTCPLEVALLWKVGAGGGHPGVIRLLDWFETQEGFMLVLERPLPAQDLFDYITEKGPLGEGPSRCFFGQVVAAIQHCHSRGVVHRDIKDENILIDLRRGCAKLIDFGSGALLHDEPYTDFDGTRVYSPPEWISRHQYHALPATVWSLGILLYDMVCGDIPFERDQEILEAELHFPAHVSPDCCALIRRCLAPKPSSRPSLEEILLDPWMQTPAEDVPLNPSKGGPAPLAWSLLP
Experiment: Pim-Mn enzyme assay (HTRF, 384-well), Pim-2
Format: biochemical
Experimental Setup: Pim-2 enzyme 0.5 pM, ATP 1.5 μM, BAD (S112) 0.5 μM, HTRF, 22-point curve; read-out: Pim-2-Mn IC50 IP
pIC50: −log10 of the molar value.
Measured Endpoint: pIC50

>>> df
                                    molecule  measured_endpoint  measured_result
 0  Cc1nc2cccc(-c3cc4c([nH]3)CCNC4=O)c2nc1N[C@@H]1CCCNC1 [Example 75]              pIC50             8.92
 1  C[C@H]1NC(=O)c2cc(-c3cccc4c(=O)[nH]c(N(C)C(C)(C)C)nc34)[nH]c21 [Example 407]              pIC50             9.40
 2  Cc1nc2cccc(-c3cc4c([nH]3)CCNC4=O)c2nc1NCC1(C)CC1 [Example 335]              pIC50             9.00
 3  Cc1nc2cccc(-c3cc4c([nH]3)CCNC4=O)c2nc1NC1(CO)CCC1 [Example 146]              pIC50             8.52
 4  COCC(C)(C)Nc1nc2c(-c3cc4c([nH]3)CCNC4=O)cccc2nc1C [Example 66]              pIC50             9.15
 5  CC[C@H]1NC(=O)c2cc(-c3cccc4c(=O)n(C5CC5)c(NC(C)(C)C)nc34)[nH]c21 [Example 511]              pIC50             9.15
 6  Cc1nc2cccc(-c3cc4c([nH]3)CCNC4=O)c2nc1N[C@H]1C[C@H](O)C1 [Example 442]              pIC50             8.76
 7  CC1(Nc2cnc3cccc(-c4cc5c([nH]4)CCNC5=O)c3n2)CC1 [Example 211]              pIC50             9.52
 8  Cc1cccc(C)c1-c1cnc2cccc(-c3cc4c([nH]3)CCNC4=O)c2n1 [Example 401]              pIC50             7.46
 9  C[C@H]1NC(=O)c2cc(-c3cccc4c(N)nc(NC(C)(C)C)nc34)[nH]c21 [Example 484]              pIC50             8.12
10  Cc1nc2ccc(F)c(-c3cc4c([nH]3)[C@@H](C)NC4=O)c2nc1NC1CC1 [Example 284]              pIC50            10.42
11  Cc1nc2cccc(-c3cc4c([nH]3)CCNC4=O)c2nc1N[C@H]1C[C@@H](NC(=O)OC(C)(C)C)C1 [Example 434]              pIC50             7.76
12  Cc1nc2cccc(-c3cc4c([nH]3)[C@H](CO)NC4=O)c2nc1NC1CC1 [Example 367]              pIC50             8.43
13  CC(C)(C)Nc1ncc2cccc(-c3cc4c([nH]3)CCNC4=O)c2n1 [Example 374]              pIC50             8.44
14  Cc1nc2cccc(-c3cc4c([nH]3)CCNC4=O)c2nc1NC(C)c1ccncn1 (centres unmarked) [Example 323]              pIC50             7.20
15  Cc1nc2cccc(-c3cc4c([nH]3)C(CO)NC4=O)c2nc1NC1(C)CC1 (centres unmarked) [Example 360]              pIC50             8.86
16  Cc1nc2cccc(-c3cc4c(=O)[nH]cnc4[nH]3)c2nc1NC(C)(C)C [Example 261]              pIC50             8.89

====

Target Desc: Pim-2 (Homo sapiens (Human))
Experiment: Pim enzyme assay (HTRF, 96-well), Pim-2
Format: biochemical
Experimental Setup: full length recombinant Pim-2, biotinylated-BAD (S112) peptide, 10-point curve, 45 min RT, read-out: Pim-2 IC50 IP
pIC50: −log10 of the molar value.
Measured Endpoint: pIC50

                                   molecule  measured_result
0  O=C1NCCc2[nH]c(-c3c(F)ccc4ccc(Nc5cccnc5)nc34)cc21 [Example 228]             9.05
1  O=c1[nH]ccc2[nH]c(-c3cccc4ccc(Nc5ccccc5)nc34)nc12 [Example 189, 2,2,2-trifluoroacetate]             7.14
2  Cc1nc2cccc(-c3cc4c([nH]3)CCNC4=O)c2nc1NC(C)(C)CO [Example 201]             8.55
3  O=C1NCCc2[nH]c(-c3cccc4ccc(C5(c6ccccc6)CC5)nc34)cc21 [Example 114]             8.05
4  CCN(c1ccccc1)c1ccc2cccc(-c3cc4c([nH]3)CCNC4=O)c2n1 [Example 14]             8.22
5  C[C@H](Nc1ccc2cccc(-c3cc4c([nH]3)CCNC4=O)c2n1)c1ccccc1 [Example 112]             6.74
6  O=C1NCCc2[nH]c(-c3cccc4ccc(Oc5cccc(F)c5)nc34)cc21 [Example 42]             8.04
7  O=C1NCCc2[nH]c(-c3cccc4ccc(Nc5cncnc5)nc34)cc21 [Example 13]             8.55

====

Target Desc: Pim-2 (Homo sapiens (Human))
Experiment: Pim enzyme assay (HTRF, 96-well), Pim-2
Type: biochemical
Experimental Setup: full length recombinant Pim-2, biotinylated-BAD (S112) peptide, 10-point curve, 45 min RT, read-out: Pim-2 IC50 IP
pIC50: −log10 of the molar value.
Entries and their pIC50 values follow.
Measured Endpoint: pIC50

>>> df
                                    molecule  measured_endpoint  measured_result
 0  CCN(c1ccccc1)c1cnc2cccc(-c3cc4c([nH]3)CCNC4=O)c2n1 [Example 186]              pIC50             8.37
 1  Cc1cccc(Nc2ccc3cccc(-c4cc5c([nH]4)CCNC5=O)c3n2)c1 [Example 44]              pIC50             7.53
 2  COC(=O)[C@@H](C)Nc1nc2c(-c3cc4c([nH]3)CCNC4=O)cccc2nc1C [Example 137]              pIC50             7.13
 3  Cn1cc(-c2ccc3ccc(F)c(-c4cc5c([nH]4)CCNC5=O)c3n2)cn1 [Example 229]              pIC50             7.04
 4  O=C1NCCc2[nH]c(-c3cccc4ccc(Oc5c(F)cccc5Cl)nc34)cc21 [Example 9]              pIC50             8.07
 5  O=C1NCCc2[nH]c(-c3cccc4ccc(N[C@@H]5CCCNC5)nc34)cc21 [Example 124]              pIC50             6.85
 6  Cc1nc2cccc(-c3cc4c([nH]3)CCNC4=O)c2nc1NC1CCCNC1=O (racemic) [Example 200]              pIC50             7.07
 7  Cc1nc2cccc(-c3cc4c([nH]3)CCNC4=O)c2nc1N[C@H]1CC[C@@H](N)C1 (single isomer, unassigned) [Example 143]              pIC50             9.10
 8  CS(=O)(=O)c1ccc(-c2ccc3cccc(-c4cc5c([nH]4)CCNC5=O)c3n2)c(F)c1 [Example 86]              pIC50             6.84
 9  O=C1NCCc2[nH]c(-c3cccc4ccc(Oc5c(F)cccc5F)nc34)cc21 [Example 176]              pIC50             8.33
10  Cc1nc2cccc(-c3cc4c([nH]3)CCNC4=O)c2nc1NC1CC(F)(F)C1 [Example 145]              pIC50             8.05
11  O=c1[nH]ccc2[nH]c(-c3cccc4ccc(Nc5ccccc5Cl)nc34)cc12 [Example 107]              pIC50             7.49
12  O=C1NCCc2[nH]c(-c3cccc4ncc(Oc5ccccc5)nc34)cc21 [Example 177]              pIC50             7.74
13  O=C1NCCc2[nH]c(-c3cccc4ccc(OC5CCNCC5)nc34)cc21 [Example 81]              pIC50             7.02
14  Cc1cccc(C)c1Nc1ccc2cccc(-c3cc4c([nH]3)CCNC4=O)c2n1 [Example 102]              pIC50             7.13
15  O=C1NCCn2cc(-c3cccc4ccc(C(=O)N5CCOCC5)nc34)cc21 [Example 167]              pIC50             6.18
16  O=C1NCCc2[nH]c(-c3cccc4ccc(-c5c(F)cccc5F)nc34)cc21 [Example 231]              pIC50             7.04

Data provenance: patent US9394297B2
